Measured melting point values are reported for all entries that follow.

Below, 5 molecules whose answers are already recorded.
- MOLECULE: "Cc1ccc(-c2nnc(N)[nH]2)cc1"
  melting point: "206 to 208 °C"
- MOLECULE: "Nc1ccc(CSc2ccccn2)cc1"
  melting point: "103 to 105 °C"
- MOLECULE: "CC(Cl)C(=O)NC1CCCCC1 (stereo not given)"
  melting point: "98 to 100 °C"
- MOLECULE: "Nc1nncc(-c2cc(Cl)ccc2Cl)n1"
  melting point: "175 to 177 °C"
- MOLECULE: "Cc1ccc(C(=O)NC(C(=O)O)C(C)C)cc1 (stereo not given)"
  melting point: "155 to 157 °C"

Q: Please look at this molecule and report its melting point: NS(=O)(=O)Cc1ccc(C(=O)O)cc1
A: 275 to 277 °C

Q: Please look at this molecule and report its melting point: NS(=O)(=O)c1ccccn1
A: 141 to 143 °C

Q: Please look at this molecule and report its melting point: O=C1NC(=O)C2(CCNCC2)N1
A: 240 to 250 °C

Q: Please look at this molecule and report its melting point: O=C(O)c1cnn(-c2ccccn2)c1C(F)(F)F
A: 156 to 158 °C

Q: Please look at this molecule and report its melting point: Cn1c(NN)nc2ccccc2c1=O
A: 150 to 152 °C

Q: Please look at this molecule and report its melting point: O=C(/C=C/c1ccco1)C(C(=O)/C=C/c1ccco1)=C1SCCCCS1
A: 137 to 139 °C

Q: Please look at this molecule and report its melting point: Nc1cccc2c1CN(CCO)C2
A: 109 to 111 °C

Q: Please look at this molecule and report its melting point: CN(CC(=O)O)C1CC1
A: 101 to 103 °C

Q: Please look at this molecule and report its melting point: Cc1ccc(-c2ccc(C(=O)O)c(F)c2)cc1
A: 247 to 249 °C

Q: Please look at this molecule and report its melting point: O=C(O)C1CCN(c2cnccn2)CC1
A: 149 to 151 °C

Q: Please look at this molecule and report its melting point: O=S(=O)(Nc1ccccc1Br)N1CCOCC1
A: 81 to 83 °C

Q: Please look at this molecule and report its melting point: Nc1ccc(NC(=O)c2ccco2)cc1C(F)(F)F
A: 120 to 122 °C

Q: Please look at this molecule and report its melting point: Cc1nn(C)c(C)c1S(=O)(=O)NC(C)C(=O)O (stereo not given)
A: 197 to 199 °C

Q: Please look at this molecule and report its melting point: Cc1nn(CC(C)C)c(C)c1CC(=O)O
A: 106 to 110 °C

Q: Please look at this molecule and report its melting point: CC(O)(C(=O)O)c1ccc(F)cc1 (stereo not given)
A: 89 to 91 °C

Data credit: a melting point compilation (Tetko et al.)
